molecular target: 5-HT1A (Homo sapiens, UniProt P08908); experiment: 5-HT1A receptor binding, [3H]DPAT; details: radioligand [3H]DPAT
Sequence (P08908 whole entry, species assumed): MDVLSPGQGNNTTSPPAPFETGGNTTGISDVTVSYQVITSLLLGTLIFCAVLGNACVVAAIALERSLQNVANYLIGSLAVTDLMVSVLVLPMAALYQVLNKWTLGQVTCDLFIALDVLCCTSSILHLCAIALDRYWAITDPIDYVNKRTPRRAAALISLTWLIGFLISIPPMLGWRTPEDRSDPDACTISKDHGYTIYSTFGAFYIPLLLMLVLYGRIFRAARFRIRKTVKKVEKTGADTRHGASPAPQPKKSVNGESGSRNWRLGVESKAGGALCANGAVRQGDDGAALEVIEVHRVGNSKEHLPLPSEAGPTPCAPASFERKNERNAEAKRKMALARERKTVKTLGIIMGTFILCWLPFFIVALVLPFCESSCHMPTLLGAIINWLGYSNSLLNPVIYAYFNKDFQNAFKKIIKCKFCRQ
Measurement Type: Ki (nM)

INSERT INTO results (compound_structure_string, uom, obs_value) VALUES
  ('Fc1ccc2[nH]cc(CC3CCN(CCOc4cccc5[nH]ccc45)CC3)c2c1', 'nM', 47);
